Origin of the recorded values: PubChem BioAssay AID651821

- TEST_NAME: binders of r(CAG) RNA repeats, primary screen, biochemical, fluorescence (AID 651821);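 also: 0% = DMSO alone and 100% = 100 µM mitoxantrone as full dye displacement; higher means more dye released from RNA so lower well fluorescence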
- REPORTED_CONDITIONS: r(CAG) RNA repeat, TO-PRO-1 dye displacement fluorescence; at 3 µM; stronger effect = higher value
The campaign covered roughly 370,000 compounds. About 4,700 (1.3%) were called active. The entries come from a sample that favours actives as a whole.
QUANTITY_MEASURED: inhibition

Exercise: I have this compound here, `COc1ccc(N2CCN(CCNS(=O)(=O)c3ccc(Cl)s3)CC2)cc1` , and I need its recorded inhibition.
Solution: -0.11% (inactive)

Exercise: Please look up its inhibition: `O=C(c1ccncc1)N1CC[C@H]2[C@H](CCCN2Cc2ccc(F)cc2)C1`
Solution: -0.17% (inactive)

Exercise: So what's the measured inhibition for this one? `CCN1CCN(C(=O)N[C@@H](C(=O)N[C@@H]2C(=O)N3C(C(=O)O)=C(CSc4nnnn4C)CS[C@H]23)c2ccc(O)cc2)C(=O)C1=O`
Solution: 8.44% (inactive)

Exercise: Given the entry `CC(C)[C@H]1COCCS(=O)(=O)N1Cc1ccccc1-c1cccc2c1sc1ccccc12` , report its measured inhibition.
Solution: 9.63% (inactive)

Exercise: Consider the compound `Cc1ccc(C(=O)O)c(NC=O)c1OCc1ccccc1` and give its measured inhibition.
Solution: 0.76% (inactive)

Exercise: What value of inhibition has been reported for the following compound? `COc1ccc(N2CCN(CCNS(=O)(=O)c3ccc(C(C)(C)C)cc3)CC2)cc1`
Solution: -0.11% (inactive)

Exercise: inhibition lookup needed for COC(=O)C1=C(C)N(Cc2ccccc2C(F)(F)F)C(=NCC2CC2)NC1c1cccc(Cl)c1 (centres undefined) , thanks.
Solution: 2.17% (inactive)

Exercise: Bench note: what inhibition did `COc1cc(/C=C2/C(=O)NN(c3cccc(Cl)c3)C2=O)cc(Br)c1O` show?
Solution: 64% (active)

Exercise: Any idea what its inhibition is? The compound is CCCCOCC1CN(CCCC)S(=O)(=O)c2c(Oc3ccc(F)cc3)cccc2O1 (centres undefined)
Solution: 2.41% (inactive)

====

- TEST_NAME: binders of r(CAG) RNA repeats, primary screen, biochemical, fluorescence (AID 651821);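 also: 0% = DMSO alone and 100% = 100 µM mitoxantrone as full dye displacement; higher means more dye released from RNA so lower well fluorescence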
- REPORTED_CONDITIONS: r(CAG) RNA repeat, TO-PRO-1 dye displacement fluorescence; at 3 µM; stronger effect = higher value
Hit rate of the full screen: of about 370,000 compounds, about 4,700 (1.3%) were called active. For the sample, actives were picked, then their nearest neighbours and some compounds at random.
QUANTITY_MEASURED: inhibition

Exercise: Which inhibition value is on record for `O=C(NCc1ccccc1)[C@@H]1CCCN1C(=O)[C@H]1CCCN1C(=O)c1cccc(Cl)c1` ?
Solution: -1.13% (inactive)

Exercise: What value of inhibition has been recorded for this entry: `COC(=O)c1c(C)oc2ccc(N(C(=O)Oc3ccccc3)S(=O)(=O)c3ccccc3)cc12`
Solution: 5.17% (inactive)

Exercise: What inhibition value was documented for this molecule, Clc1cccc2c1C1CC2CCN1Cc1ccccc1 (centres undefined) ?
Solution: 1.58% (inactive)

Exercise: Requested read-out: inhibition. Entry: CC1CC(C)CN(S(=O)(=O)c2ccc(C(=O)NN3CCOCC3)cc2)C1 (centres undefined)
Solution: -3.03% (inactive)

Exercise: Field request: inhibition | item: `CCC(=O)Nc1ccc2c(c1)C(=O)N(C)[C@@H]1CC[C@@H](CC(=O)NCCc3ccccc3)O[C@H]1CO2`
Solution: 0.85% (inactive)

Exercise: What value of measured inhibition is listed for `O=C(NCCc1c[nH]c2ccccc12)OCc1cn(-c2c(F)cccc2F)nn1` ?
Solution: 0.36% (inactive)

Exercise: I am curious: what inhibition value has been reported for CC1CN(S(=O)(=O)c2ccc(C(=O)Nc3sccc3C(N)=O)cc2)CC(C)O1 (centres undefined) ?
Solution: 11.2% (inactive)

Exercise: So what's the measured inhibition for this one? `COC(=O)c1cc2c(c3c4cc(F)ccc4n(S(=O)(=O)c4ccccc4)c13)C(=O)N(Cc1ccccc1OC)C2`
Solution: 16.2% (inactive)

Exercise: For the molecule shown here, CC1CCCCN1S(=O)(=O)c1ccc(C(=O)Nc2nnc(-c3cccs3)o2)cc1 (centres undefined) , give the reported inhibition.
Solution: 49% (active)

Exercise: Entry under review: O=C(OC12CCCN(C1)/C(=C/c1ccccc1)C2)c1ccco1 (centres undefined) . Reported inhibition?
Solution: 3.14% (inactive)

Exercise: What does the data say about its inhibition? Entry: `CC(=O)Oc1c(C(=O)c2nnc(C)o2)c(=O)n(Cc2ccccc2)c2ccccc12`
Solution: 2.47% (inactive)

Exercise: What does the data say about its inhibition? Entry: `C[C@@H]1CN([C@H](C)CO)C(=O)CCCn2cc(nn2)CO[C@H]1CN(C)C(=O)Nc1ccc(N2CCCCC2)cc1`
Solution: 9.11% (inactive)

Exercise: Entry CC1CCCCN1S(=O)(=O)c1ccc(S(=O)(=O)N(CC(=O)Nc2ccccc2)Cc2cccs2)cc1 (centres undefined) : reported inhibition = ?
Solution: 2.51% (inactive)

Exercise: Entry `CC(=O)Oc1ccc(N(C(C)=O)S(=O)(=O)c2ccc3ccccc3c2)cc1Br` : reported inhibition = ?
Solution: 2.18% (inactive)

Exercise: Consider the molecule shown here: `CC(=O)N(c1ccc2oc(=O)sc2c1)S(=O)(=O)c1ccc(C)cc1` What is its recorded inhibition?
Solution: 42.4% (active)

Exercise: Would you mind telling me what inhibition value was observed for `Cc1ccc2nc(CN(C)C(=O)[C@@H](Cc3ccccc3)NC(=O)[C@H]3O[C@@H](n4ccc(=O)[nH]c4=O)[C@H](O)[C@@H]3O)[nH]c2c1` ?
Solution: 0.21% (inactive)

Exercise: For the molecule `CCOC(=O)C(=O)N(Cc1ccccc1)c1ccccc1C(=O)Nc1cc(OC)ccc1OC` , what inhibition is on record?
Solution: -0.13% (inactive)

Exercise: Item CC(=O)OCCN1CCCC12CCC(c1ccccc1)CC2 (centres undefined) has what recorded inhibition?
Solution: 2.02% (inactive)

Exercise: Item O=C(O)C1CC=C(Cl)CC1C(=O)NCc1ccccc1 (centres undefined) has what recorded inhibition?
Solution: 1.32% (inactive)

====

- TEST_NAME: binders of r(CAG) RNA repeats, primary screen, biochemical, fluorescence (AID 651821);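 also: 0% = DMSO alone and 100% = 100 µM mitoxantrone as full dye displacement; higher means more dye released from RNA so lower well fluorescence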
- REPORTED_CONDITIONS: r(CAG) RNA repeat, TO-PRO-1 dye displacement fluorescence; at 3 µM; stronger effect = higher value
The campaign covered roughly 370,000 compounds. About 4,700 (1.3%) were called active. The sample as a whole holds a higher share of actives than the screen did.
QUANTITY_MEASURED: inhibition (%)
Kindly provide the numeric value in % only, without the unit symbol.

Exercise: For `O=C(CCS(=O)(=O)c1ccccc1Cl)Nc1ccc(S(=O)(=O)Nc2ncccn2)cc1` , what is its reported inhibition?
Solution: 2.17

Exercise: Entry `COCc1c(C(=O)N/N=C(\C)c2ccncc2)nnn1-c1nonc1N` has what inhibition?
Solution: -1.16

Exercise: # lookup: inhibition of `O=C(Nc1ccc(S(=O)(=O)N2CCOCC2)cc1)c1ccc2ncsc2c1`
Solution: 5.29

Exercise: Give its inhibition value. Item: `CN1CCN(S(=O)(=O)c2cccc(C(=O)N3CCc4ccccc43)c2)CC1`
Solution: 0.16

Exercise: I'd like to know its inhibition. The compound in question is `O=C(Nc1ccc(S(=O)(=O)Nc2nccs2)cc1)c1cccc(S(=O)(=O)N2CCOCC2)c1`
Solution: 34.7

Exercise: Data request, read-out inhibition, for `CCCCOCCCNC(=O)C[C@H]1C[C@@]2(C(=O)OC)C(=C[C@H](COCc3ccccc3)O[C@@H]2C)N(Cc2cccc3ccccc23)C1=O`
Solution: 4.81

Exercise: Look up inhibition: Nc1[nH]c(/C=C2/CCCCC2n2[nH]c(=O)n(-c3ccccc3)c2=O)c(Cc2ccccc2)[n+]1Cc1ccccc1 (centres undefined)
Solution: 8.51

Exercise: Could you tell me which inhibition is on file for `CCC(CC)C(=O)Nc1ccc(S(=O)(=O)Nc2nccs2)cc1` ?
Solution: 3.15

Exercise: Entry under review: `Nc1nc2c(ncn2[C@@H]2O[C@H](C(=O)N[C@H](Cc3ccccc3)C(=O)NCC3CCCCC3)[C@@H](O)[C@H]2O)c(=O)[nH]1` . Reported inhibition?
Solution: 6.66

====

- TEST_NAME: binders of r(CAG) RNA repeats, primary screen, biochemical, fluorescence (AID 651821);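 also: 0% = DMSO alone and 100% = 100 µM mitoxantrone as full dye displacement; higher means more dye released from RNA so lower well fluorescence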
- REPORTED_CONDITIONS: r(CAG) RNA repeat, TO-PRO-1 dye displacement fluorescence; at 3 µM
The campaign covered roughly 370,000 compounds. About 4,700 (1.3%) were called active.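 Rule for the calls: active = inhibition above the plate cutoff, the mean of all test compounds on that plate plus 3 SD (cut at about 35% in these data); inactive = the rest.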 The entries come from a sample that favours actives as a whole.
// one of active, inactive, no free text

Exercise: Hi, do you know how `Cc1cc(Br)cn2c(Cc3ccccc3C(F)(F)F)c(-c3ccc(C#N)cc3)nc12` came out in this test?
Solution: inactive

Exercise: Record lookup: outcome of this test for CCCCCCN1CCS(=O)(=O)N(Cc2ccc(C(F)(F)F)cc2)C(C(=O)OC)C1 (configuration not stated) ?
Solution: inactive

Exercise: Given COc1ccc(C2CC=C(C(=O)O)C(c3ccccc3F)N2S(=O)(=O)c2ccc(C)cc2)cc1OC (configuration not stated) , state the outcome it received in this test.
Solution: inactive

Exercise: How was C=C(C)C1CC23C(=O)C4(C(=O)c5ccccc5)C[C@@]5(C)CCC(CC2C1(C)C)(C4=O)C35OC (some centres not stated) classified in this test?
Solution: inactive

Exercise: # fetch the recorded call for `Cc1ccc([C@@H]2CC=C(C(=O)O)[C@H](c3cccc(Cl)c3)N2S(=O)(=O)c2ccc(C)cc2)cc1` here
Solution: active

Exercise: Test call for this molecule, please: `O=C(O)c1ccc(NN=CC2=C(N3CCOCC3)/C(=C/c3ccccc3)CC2)cc1`
Solution: active

Exercise: Query: recorded result category for `Cc1ccc([C@@H]2CC(=O)[C@@H]3CN(S(=O)(=O)c4ccc(C)cc4)[C@H](c4ccccc4F)C[C@@H]3N2S(=O)(=O)c2ccc(Cl)cc2)cc1` in this test
Solution: inactive

Exercise: How did this test come out for `Cc1ccc(S(=O)(=O)N2[C@@H](c3ccccc3F)C(C(=O)O)=CC[C@H]2c2ccc(Cl)cc2)cc1` ?
Solution: active

Exercise: I would be grateful if you could indicate the recorded call for `Cc1ccc(S(=O)(=O)N2[C@@H](c3cccc(Cl)c3)C(C(=O)O)=CC[C@H]2c2ccc(Cl)c(Cl)c2)cc1` .
Solution: inactive

Exercise: Recorded test outcome, item `O=C(O)c1ccc(N=NN2CCOCC2)cc1`
Solution: inactive

Exercise: Record lookup: outcome of this test for `Cc1ccccc1S(=O)(=O)N1[C@@H](c2cccc(Cl)c2)C(C(=O)O)=CC[C@H]1c1ccc(Cl)cc1` ?
Solution: active

Exercise: Hi team, can someone confirm the assay call for `COC(=O)C[C@@H]1CC[C@@H]2[C@H](COc3ccc(NC(=O)c4cccc(F)c4)cc3C(=O)N2C)O1` ?
Solution: inactive

Exercise: Hi, do you know how `O=C(O)Cn1cnc2c(NCc3ccccc3)ncnc21` came out in this test?
Solution: inactive

Exercise: What call does the record list for `CCN1C(=O)[C@@H]2[C@@H]3CN(S(=O)(=O)c4ccccc4C)[C@@H](c4ccc(Cl)cc4)[C@@H]3C(=O)C[C@@H]2C1=O` ?
Solution: inactive

Exercise: For this molecule, state the assay outcome: `CCOC(=O)C1=CC[C@@H](c2ccccc2)N(S(=O)(=O)c2ccc(C)cc2)[C@H]1c1cccc(OC)c1`
Solution: inactive

Exercise: How did this test come out for Cc1ccc(S(=O)(=O)N2CC3C(=O)C[C@@H](c4ccccc4Cl)N(S(=O)(=O)c4ccc(C)cc4)C3CC2c2ccccc2)cc1 (some centres not stated) ?
Solution: inactive

Exercise: Answer briefly: the call reported for O=C1OC(NC(=O)c2ccccc2)C(N2CCOCC2)=C1Cl (configuration not stated) in this assay.
Solution: inactive
